Data credit: patent US20260248972A1

# experimentalTarget: SSTR2 (Rattus norvegicus)
# Construct: host or cells: AR42J cells
# Sequence (P30680 whole entry): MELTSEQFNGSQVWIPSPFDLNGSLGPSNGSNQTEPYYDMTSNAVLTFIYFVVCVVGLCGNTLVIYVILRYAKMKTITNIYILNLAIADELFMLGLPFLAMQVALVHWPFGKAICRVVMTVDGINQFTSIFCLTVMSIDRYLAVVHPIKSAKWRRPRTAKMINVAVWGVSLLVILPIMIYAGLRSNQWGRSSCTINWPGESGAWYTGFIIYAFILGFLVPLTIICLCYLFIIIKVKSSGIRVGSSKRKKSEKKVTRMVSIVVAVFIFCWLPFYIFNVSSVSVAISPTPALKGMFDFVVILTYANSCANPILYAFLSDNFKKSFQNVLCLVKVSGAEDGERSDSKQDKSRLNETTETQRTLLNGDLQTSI
# experimentalDetails: Competitive cell-binding assay on AR42J cells with 125I-C1 as competitive ligand
# settings: based on mean IC50, C-1 = 1.00
readout: Relative Binding Affinity SSTR2
A bare number is all that is needed in reply.

- C[C@@H](O)[C@H](NC(=O)[C@@H]1CSSC[C@H](NC(=O)[C@@H](Cc2ccccc2)NC(=O)[C@H](CCCCNC(=O)CC[C@H](NC(=O)CNC(=O)c2cccc(NC(=O)N[C@@H]3CN(C4CCCCC4)c4ccccc4N(CC(=O)C(C)(C)C)C3=O)c2)C(=O)O)NC(=O)COCCOCCNC(=O)CCC(C(=O)O)N2CCN(CC(=O)O)CCN(CC(=O)O)CCN(CC(=O)O)CC2)C(=O)N[C@@H](Cc2ccc(O)cc2)C(=O)N[C@H](Cc2c[nH]c3ccccc23)C(=O)N[C@@H](CCCCN)C(=O)N[C@@H]([C@@H](C)O)C(=O)N1)C(=O)O (some centres unmarked): 0.46

Pending compound:
Q: What does the record list as Relative Binding Affinity SSTR2 for C[C@@H](O)[C@H](NC(=O)[C@@H]1CSSC[C@H](NC(=O)[C@@H](Cc2ccccc2)NC(=O)COCCOCCNC(=O)COCCOCCNC(=O)[C@H](CCCCNC(=O)CC[C@H](NC(=O)CNC(=O)c2cccc(NC(=O)N[C@@H]3CN(C4CCCCC4)c4ccccc4N(CC(=O)C(C)(C)C)C3=O)c2)C(=O)O)NC(=O)CN2CCN(CC(=O)O)CCN(CC(=O)O)CCN(CC(=O)O)CC2)C(=O)N[C@@H](Cc2ccc(O)cc2)C(=O)N[C@H](Cc2c[nH]c3ccccc23)C(=O)N[C@@H](CCCCN)C(=O)N[C@@H]([C@@H](C)O)C(=O)N1)C(=O)O ?
Result: 2.94
